Origin of measurements: PubChem BioAssay (NCI)

# Tested on: SNB-75 CNS
# testDescription: NCI-60 one-dose screen, 48 h (100 = growth as untreated, 0 = no growth, -100 = all killed)
# testContext: 10 µM
This is part of a sample that, as a whole, favours compounds with a hit. Of some 83,000 tested, about 20% had one in any assay.
Reported growth is given for each of the following compounds.
Please respond with the number in % and leave the unit unwritten.

Please review the following examples before continuing.
{"compound": "C#CCOc1cc(N(CC)CC)ccc1C(C(=O)NC(C)(C)C)N(C(=O)C1CCc2cc(F)ccc2O1)c1ccc(F)cc1F (configuration not stated)", "unitAnnotation": "%", "recordedResult": 64.4}
{"compound": "COc1cccc(O)c1/C=C1\\SCc2cc3c(OC)cccc3[o+]c21", "unitAnnotation": "%", "recordedResult": 115}
{"compound": "O=C(CC(=O)Nc1ccc(Oc2ncnc3scc(Nc4n[nH]c(=S)s4)c23)cc1)Nc1ccc(Cl)cc1", "unitAnnotation": "%", "recordedResult": 87.7}
{"compound": "CCn1c(SCC(=O)Nc2ccc(-c3nc4ccccc4[nH]3)cc2)nc2ccccc2c1=O", "unitAnnotation": "%", "recordedResult": -94.2}
{"compound": "Fc1ccc(/C=C/c2nc3ccccc3n3c(-c4ccc(Cl)cc4)nnc23)cc1", "unitAnnotation": "%", "recordedResult": 86.8}
{"compound": "Cn1cc(/C=C(/SS/C(=C/c2cn(C)c3cccc(C(=O)O)c23)C(=O)O)C(=O)O)c2c(C(=O)O)cccc21", "unitAnnotation": "%", "recordedResult": 88.8}
{"compound": "COc1cc2oc(-c3cccc(C(=O)Nc4ccc(Cl)cc4)c3)cc(=O)c2c(OCCNC(=O)[C@@H](N)CO)c1OC", "unitAnnotation": "%", "recordedResult": 121}
{"compound": "COc1cc(C2CC(c3ccccc3)=Nc3c(N)nc(N)nc3N2)ccc1Oc1nc(NCCO)nc(N2CCOCC2)n1 (configuration not stated)", "unitAnnotation": "%", "recordedResult": 84.3}
{"compound": "O=C1NC(=S)S/C1=C\\c1cn(-c2ccccc2)nc1-c1ccc([N+](=O)[O-])cc1", "unitAnnotation": "%", "recordedResult": 34.5}
{"compound": "O=[N+]([O-])c1cccc(-c2nnc3c(/C=C/c4ccccc4O)nc4ccccc4n23)c1", "unitAnnotation": "%", "recordedResult": 102}

Challenge: Under SNB-75 CNS: report growth of O=C(CC(=O)Nc1ccc(Oc2ncnc3scc(Nc4n[nH]c(=S)s4)c23)cc1)Nc1ccc(Br)cc1 .
Response given: 95.6

Challenge: Lab note: record growth of Cn1cc(-c2cc(N)n3nc(-c4cn(C)c5ccccc45)cc3n2)c2cc(F)ccc21 tested on SNB-75 CNS.
Response given: -67

Challenge: Look up and report measured growth (SNB-75 CNS) for the following compound: COc1ccc(C(=O)COc2ccc(NC(=O)Nc3ccccc3)cc2)cc1
Response given: 87.9

Challenge: Look up SNB-75 CNS data: growth of CC1(C)CC[C@]2(C(=O)O)CC[C@]3(C)C(=CCC4[C@@]5(C)C[C@@H](O)[C@@H]6OC(c7cccc(F)c7)OC[C@@]6(C)C5CC[C@]43C)C2C1 (some centres not stated) , then report it.
Response given: 81.6

Challenge: Using SNB-75 CNS as the test system, report measured growth of O=C(c1ccc(F)cc1)C(c1c[nH]c2ccccc12)c1c[nH]c2ccccc12 .
Response given: 79.1

Challenge: Specify the recorded growth for COc1ccc(C2c3sc4ccc(C)cc4c3Oc3nc(N)nc(N)c32)cc1 (configuration not stated) , system: SNB-75 CNS.
Response given: 70.9

Challenge: # lookup: SNB-75 CNS growth, key = COC(=O)CNC(=O)COc1c(OC)c(OC)cc2oc(-c3cccc(C(=O)Nc4ccc(Cl)cc4)c3)cc(=O)c12
Response given: 85.1

Challenge: Consider the compound O=C1NC2C=CC=CC2/C1=C1/SC(=S)N(C2CC(=O)N(c3ccc(Br)cc3)C2=O)C1=O (configuration not stated) tested on SNB-75 CNS; state its growth.
Response given: 101
